meta.source: patent US9695123B2

System: Blumeria graminis f. Sp. Tritici (Erysiphe graminis f. Sp. Tritici)
Experiment: Blumeria graminis f. sp. tritici / wheat / leaf disc preventative (powdery mildew on wheat)
Type: in vivo
Conditions: foliar, wheat leaf disc cv. Kanzler, inoculated 1 day after application, assessed 6-8 days after application, read-out: disease control

MOLECULE: OC(Cn1cncn1)(c1ccc(C#CC2CC2)cc1)C(F)(F)c1ccc(Cl)cn1 (centres unmarked)
pest or weed control at 200 ppm: ≥ 80%
//
MOLECULE: N#CC(Cc1cncnc1)c1ccc(C#CC2CC2)cc1 (centres unmarked)
pest or weed control at 200 ppm: ≥ 80%
//
MOLECULE: N#CC(Cc1cccnc1)c1ccc(C#CC2CC2)cc1 (centres unmarked)
pest or weed control at 200 ppm: ≥ 80%
//
MOLECULE: OC(Cn1ccnc1)c1ccc(C#CC2CC2)cc1Cl (centres unmarked)
pest or weed control at 200 ppm: ≥ 80%
//
MOLECULE: N#CC(Cc1cccnc1)c1ccc(C#CC2CC2)cc1F (centres unmarked)
pest or weed control at 200 ppm: ≥ 80%

* * *

# inhibition of growth at 200 ppm annotations
System: Fusarium culmorum
Experiment: Fusarium culmorum / liquid culture (root rot)
Type: cell-based
Details: liquid culture (PDB), inhibition of growth photometrically after 48 hrs, read-out: disease control
READOUT_TYPE: inhibition of growth at 200 ppm

COMPOUND: CCCC#Cc1ccc(C(O)(Cn2cncn2)C(F)(F)c2ccc(Cl)cn2)cc1 (stereo not drawn) [Compound 12]
VAL: ≥ 80%

COMPOUND: N#CC(Cc1cccnc1)c1ccc(C#CC2CC2)cc1 (stereo not drawn) [Compound 1]
VAL: ≥ 80%

COMPOUND: N#CC(Cc1cccnc1)c1ccc(C#CC2CC2)cc1F (stereo not drawn) [Compound 10]
VAL: ≥ 80%
